Every entry's value here was drawn from patent US11154563B2.

Exercise: for every item that follows, state its recorded IC50.
targetSystem: immunoproteasome LPM2/β1i subunit (Homo sapiens, UniProt P28065+P40306)
experimentalProtocol: Caliper-based proteasome enzymatic activity assay, LMP2
conditionLabel: human recombinant immunoproteasome 0.3 nM, FAM-peptide substrate 1 μM, 2 h at rt

Previously resolved entries follow.
>  <mol>
Cc1ccc(C[C@H](NC(=O)OC[C@H]2COCCN2C(=O)C(C#N)=CC(C)(C)N2CCC(F)(F)C2)B(O)O)cc1

>  <IC50>
> 5 µM

$$$$
>  <mol>
CC(C)C=C(C#N)C(=O)N1CCCC[C@H]1COC(=O)N[C@@H](Cc1ccccc1)B(O)O

>  <IC50>
4.04 µM

$$$$
>  <mol>
CC(C)(C)C=C(C#N)C(=O)N1C[C@@H]2C[C@@H]2[C@H]1COC(=O)N[C@@H](Cc1ccccc1)B(O)O

>  <IC50>
> 5 µM

$$$$

List IC50 for every entry below, keeping the order given.
1. Cc1ccc(C[C@H](NC(=O)OC[C@H]2CCCCN2C(=O)C(C#N)=CC(C)(C)N2CCC(F)(F)C2)B(O)O)cc1
2. CC(C)C[C@H](NC(=O)OC[C@H]1CCCCN1C(=O)C(C#N)=CC(C)(C)N1CCC(F)(F)C1)B(O)O
3. CC(C)(C=C(C#N)C(=O)N1CCC[C@@H]1COC(=O)N[C@@H](Cc1ccccc1)B(O)O)N1CCOCC1
4. CC(C)(C=C(C#N)C(=O)N1CCC[C@@H]1COC(=O)N[C@@H](Cc1ccccc1)B(O)O)N1CCC(F)(F)CC1
5. CC(C)(C)C=C(C#N)C(=O)N1C[C@H]2C[C@H]2[C@H]1COC(=O)N[C@@H](Cc1ccccc1)B(O)O
6. CC(C)(C)C=C(C#N)C(=O)N1CCCC[C@@H]1COC(=O)N[C@@H](Cc1coc2ccccc12)B(O)O

**A:**
1: > 5 µM; 2: 2.16 µM; 3: > 5 µM; 4: 4.78 µM; 5: > 5 µM; 6: > 5 µM

**Q:** # get_value(readout='IC50', item= C=CC(=O)N1CCC[C@@H]1COC(=O)N[C@@H](Cc1ccccc1)B(O)O )
**A:** > 5 µM

###

targetSystem: constitutive proteasome β5c unit (Homo sapiens, UniProt P20618+P28074)
experimentalProtocol: Caliper-based proteasome enzymatic activity assay, β5c
conditionLabel: human recombinant constitutive proteasome 0.3 nM, FAM-peptide substrate 1 μM, 3 h at rt; read-out: β5c subunit IC50
pIC50: −log10 of the molar value.
observedProperty: pIC50

>  <molecule>
CC(C)C=C(C#N)C(=O)N1CCCC[C@H]1COC(=O)N[C@@H](Cc1ccccc1)B(O)O

>  <pIC50>
< 5.30

$$$$
>  <molecule>
CC(C)(C)/C=C(\C#N)C(=O)N1CC(F)(F)C[C@@H]1COC(=O)N[C@@H](Cc1ccccc1)B(O)O

>  <pIC50>
5.83

$$$$

Let us move to another entry and its pIC50.
**Q:** Record CC(C)C=C(C#N)C(=O)N1CCCCC1CCC(=O)N[C@@H](Cc1ccccc1)B(O)O (single isomer, unassigned) [Example 6] : what is its pIC50 with constitutive proteasome β5c unit (Homo sapiens, UniProt P20618+P28074)?
**A:** < 5.30

###

Would you mind telling me the reported IC50 of each entry?
targetSystem: immunoproteasome LMP7/B5i subunit (Homo sapiens, UniProt P20618+P28062)
experimentalProtocol: Caliper-based proteasome enzymatic activity assay, LMP7
Format: biochemical
conditionLabel: human recombinant immunoproteasome 0.3 nM, FAM-peptide substrate 1 μM, 3 h at rt
Answers are plain numbers, in nM.

>  <mol>
CC(C)(C=C(C#N)C(=O)N1CCOC[C@@H]1COC(=O)N[C@@H](Cc1coc2ccccc12)B(O)O)N1CCC(F)(F)C1

>  <measured>
2.3

$$$$
>  <mol>
CC(C)(C)C=C(C#N)C(=O)N1C[C@H]2C[C@H]2[C@H]1COC(=O)N[C@@H](Cc1ccccc1)B(O)O

>  <measured>
1.8

$$$$
>  <mol>
C=CC(=O)N1C[C@@H]2C[C@@H]2[C@@H]1COC(=O)N[C@@H](Cc1ccccc1)B(O)O

>  <measured>
68

$$$$

**Q:** Give the reported IC50 for CC(C)(/C=C(/C#N)C(=O)N1CCCC[C@@H]1COC(=O)N[C@@H](Cc1ccccc1)B(O)O)N1CCC(F)(F)C1 (system: immunoproteasome LMP7/B5i subunit (Homo sapiens, UniProt P20618+P28062)).
**A:** 5.3
